These measurements were taken from patent US20020086895A1.

Test system: A. fumigatus
Test: Antifungal screen of matrix-synthesis aurones in 96-well plates, A. fumigatus
Assay type: cell-based, Aspergillus fumigatus
Conditions: @12.5 μg/ml
metric-name: AF percent inhibition

| smiles-repr | result |
| --- | --- |
| CC(C)=CCc1c(O)cc2c(c1O)C(=O)C(=Cc1ccc(F)cc1F)O2 | 40% |
| Cc1cccc(C)c1C=C1Oc2cc(O)cc(O)c2C1=O | CA 0% AF 0% @12.5 μg/ml |
| Cc1ccccc1C=C1Oc2cc(O)cc(O)c2C1=O | CA 0% AF 0% @12.5 μg/ml |

----------
Test system: A. fumigatus
Assay: Antifungal screen of matrix-synthesis aurones in 96-well plates, A. fumigatus
Format: cell-based, Aspergillus fumigatus
Conditions: @12.5 μg/ml
metric-name: AF percent inhibition

| smiles-repr | result |
| --- | --- |
| CCc1ccc(C=C2Oc3cc(O)c(CC=C(C)C)c(O)c3C2=O)cc1 | 41% |
| CCOc1ccccc1C=C1Oc2cc(O)cc(O)c2C1=O | CA 0% AF 0% @12.5 μg/ml |
| C=CCOc1ccccc1C=C1Oc2cc(O)c(CC=C(C)C)c(O)c2C1=O | 40% |
| CC(C)=CCc1c(O)cc2c(c1O)C(=O)C(=Cc1ccc(Oc3ccccc3)cc1)O2 | CA 0% AF 0% @12.5 μg/ml |
| CCc1ccc(C=C2Oc3cc(O)cc(O)c3C2=O)cc1 | CA 0% AF 0% @12.5 μg/ml |
| Cc1ccc(C=C2Oc3cc(O)cc(O)c3C2=O)cc1 | CA 0% AF 0% @12.5 μg/ml |
| COc1ccccc1C=C1Oc2cc(O)c(CC=C(C)C)c(O)c2C1=O | 39% |
| CCOc1ccc(C=C2Oc3cc(O)cc(O)c3C2=O)cc1OC | CA 0% AF 0% @12.5 μg/ml |

# input for lookup
Ask: Please list AF percent inhibition recorded for the compound COc1ccccc1C=C1Oc2cc(O)cc(O)c2C1=O
Reply: CA 0% AF 0% @12.5 μg/ml
